protocolNotes: Emulsion stability testing of nonionic emulsifiers, aromatic solvent series
Format: physicochemical
Design: key: G = good; F = fair; P = poor
runParameters: 2,4-D ester 480 g/L in Exxsol D-110, 34 ppm water
assayMetric: Spon. (spontaneity)

{"columns": ["compound", "testResult"],
 "data": [
  ["CCC=CCCCCCCCCOCCOCCOCCOCCOCCOCCOCCO (mixture of isomers)", "F"],
  ["C=CCCCCCCCCOCCOCCOCCOCCOCCOCCOCCO", "G"],
  ["C=CCCCCCCCCOCCOCCOCCOCCOCCO", "F"],
  ["CCC=CCCCCCCCCOCCO (mixture of isomers)", "P"],
  ["C=CCCCCCCCCOCCOCCOCCOCCOCCOCCOCCOCCOCCOCCOCCOCCOCCOCCOCCO", "P"],
  ["CCC=CCCCCCCCCOCCOCCOCCOCCOCCO (mixture of isomers)", "F"],
  ["CCC=CCCCCCCCCOCCOCCOCCOCCOCCOCCOCCOCCOCCOCCOCCOCCOCCOCCOCCO (mixture of isomers)", "P"],
  ["C=CCCCCCCCCOCCOCCOCCO", "P"],
  ["C=CCCCCCCCCOCCO", "P"],
  ["CCC=CCCCCCCCCOCCOCCOCCO (mixture of isomers)", "P"]
]}

###

protocolNotes: Emulsion stability testing of nonionic emulsifiers, Hallcomid solvent series
Assay type: physicochemical
runParameters: Bifenthrin 240 g/L in Hallcomid M-8-10, 1000 ppm water
# reported 1 h separation, amount; entries follow

{"columns": ["compound", "1 h separation, amount, mL"],
 "data": [
  ["CCC=CCCCCCCCCOCCOCCOCCOCCOCCOCCOCCO (mixture of isomers) [A12-13]", 5.1],
  ["CCC=CCCCCCCCCOCCOCCOCCOCCOCCO (mixture of isomers) [A12-10]", 6.1],
  ["CCC=CCCCCCCCCOCCOCCOCCOCCOCCOCCOCCOCCOCCOCCOCCOCCOCCOCCOCCO (mixture of isomers) [A12-16]", 6.2],
  ["C=CCCCCCCCCOCCOCCOCCOCCOCCO [A10-10]", 6.5],
  ["C=CCCCCCCCCOCCOCCOCCOCCOCCOCCOCCO [A10-13]", 6.4],
  ["C=CCCCCCCCCOCCOCCOCCOCCOCCOCCOCCOCCOCCOCCOCCOCCOCCOCCOCCO [A10-16]", 5.5],
  ["C=CCCCCCCCCOCCOCCOCCO [A10-7]", 10],
  ["CCC=CCCCCCCCCOCCOCCOCCO (mixture of isomers) [A12-7]", 10.2],
  ["CCC=CCCCCCCCCOCCO (mixture of isomers) [A12-4]", 11]
]}

###

protocolNotes: Emulsion stability testing of nonionic emulsifiers, aromatic solvent series
Format: physicochemical
runParameters: Bifenthrin 240 g/L in Aromatic 100, 1000 ppm water
# reported 24 h separation, amount; entries follow

{"columns": ["compound", "24 h separation, amount"],
 "data": [
  ["CCC=CCCCCCCCCOCCOCCOCCO (mixture of isomers)", "4.9 mL"],
  ["CCC=CCCCCCCCCOCCOCCOCCOCCOCCOCCOCCO (mixture of isomers)", "0.5 CO, 1 C"],
  ["C=CCCCCCCCCOCCOCCOCCOCCOCCOCCOCCOCCOCCOCCOCCOCCOCCOCCOCCO", "4.8 mL"],
  ["CCC=CCCCCCCCCOCCOCCOCCOCCOCCOCCOCCOCCOCCOCCOCCOCCOCCOCCOCCO (mixture of isomers)", "5 mL"],
  ["C=CCCCCCCCCOCCO", "6 mL"],
  ["C=CCCCCCCCCOCCOCCOCCOCCOCCOCCOCCO", "2.6 mL"],
  ["C=CCCCCCCCCOCCOCCOCCO", "5 mL"],
  ["CCC=CCCCCCCCCOCCO (mixture of isomers)", "5.2 mL"],
  ["C=CCCCCCCCCOCCOCCOCCOCCOCCO", "4.5 O, 1 CO"]
]}

###

protocolNotes: Emulsion stability testing of nonionic emulsifiers, aromatic solvent series
Format: physicochemical
Design: key: C = creamy; CO = creamy oil; O = oil; GC = gritty cream; NS = no separation; OC = oily cream
runParameters: Bifenthrin 240 g/L in Aromatic 100, 1000 ppm water

{"columns": ["compound", "24 h separation, appearance"],
 "data": [
  ["CCC=CCCCCCCCCOCCO (mixture of isomers)", "O"],
  ["C=CCCCCCCCCOCCO", "O"],
  ["CCC=CCCCCCCCCOCCOCCOCCOCCOCCOCCOCCOCCOCCOCCOCCOCCOCCOCCOCCO (mixture of isomers)", "C"],
  ["C=CCCCCCCCCOCCOCCOCCO", "O"],
  ["C=CCCCCCCCCOCCOCCOCCOCCOCCOCCOCCOCCOCCOCCOCCOCCOCCOCCOCCO", "CO"],
  ["C=CCCCCCCCCOCCOCCOCCOCCOCCOCCOCCO", "O"],
  ["CCC=CCCCCCCCCOCCOCCOCCO (mixture of isomers)", "O"]
]}

###

protocolNotes: Emulsion stability testing of nonionic emulsifiers, Hallcomid solvent series
Type: physicochemical
Set-up: key: G = good; F = fair; P = poor
runParameters: 2,4-D diester 480 g/L in Hallcomid M-8-10, 34 ppm water
assayMetric: Spon. (spontaneity)

{"columns": ["molecule", "testResult"],
 "data": [
  ["C=CCCCCCCCCOCCOCCOCCO", "F"],
  ["CCC=CCCCCCCCCOCCOCCOCCO (mixture of isomers)", "F"],
  ["CCC=CCCCCCCCCOCCOCCOCCOCCOCCO (mixture of isomers)", "P"],
  ["CCC=CCCCCCCCCOCCO (mixture of isomers)", "F"],
  ["C=CCCCCCCCCOCCOCCOCCOCCOCCOCCOCCOCCOCCOCCOCCOCCOCCOCCOCCO", "P"],
  ["CCC=CCCCCCCCCOCCOCCOCCOCCOCCOCCOCCOCCOCCOCCOCCOCCOCCOCCOCCO (mixture of isomers)", "P"],
  ["C=CCCCCCCCCOCCOCCOCCOCCOCCOCCOCCO", "P"],
  ["C=CCCCCCCCCOCCO", "F"],
  ["C=CCCCCCCCCOCCOCCOCCOCCOCCO", "F"],
  ["CCC=CCCCCCCCCOCCOCCOCCOCCOCCOCCOCCO (mixture of isomers)", "P"]
]}

###

protocolNotes: Emulsion stability testing of nonionic emulsifiers, aromatic solvent series
Format: physicochemical
Parameters: key: C = creamy; CO = creamy oil; O = oil; GC = gritty cream; NS = no separation; OC = oily cream
runParameters: Tebuconazole 360 g/L in N-methyl-2-pyrrolidone, 1000 ppm water
assayMetric: 24 h separation, appearance

{"columns": ["compound", "assayMetric", "testResult"],
 "data": [
  ["CCC=CCCCCCCCCOCCOCCOCCO (mixture of isomers)", "24 h separation, appearance", "GC"],
  ["C=CCCCCCCCCOCCOCCOCCOCCOCCO", "24 h separation, appearance", "CO"],
  ["CCC=CCCCCCCCCOCCOCCOCCOCCOCCOCCOCCOCCOCCOCCOCCOCCOCCOCCOCCO (mixture of isomers)", "24 h separation, appearance", "GC"],
  ["CCC=CCCCCCCCCOCCOCCOCCOCCOCCO (mixture of isomers)", "24 h separation, appearance", "GC"]
]}

###

protocolNotes: Emulsion stability testing of nonionic emulsifiers, Hallcomid solvent series
Type: physicochemical
Set-up: key: C = creamy; CO = creamy oil; O = oil; GC = gritty cream; NS = no separation; OC = oily cream
runParameters: Tebuconazole 360 g/L in Hallcomid M-8-10, 34 ppm water

{"columns": ["molecule", "24 h separation, appearance"],
 "data": [
  ["C=CCCCCCCCCOCCO", "C"],
  ["C=CCCCCCCCCOCCOCCOCCOCCOCCO", "C"],
  ["CCC=CCCCCCCCCOCCOCCOCCOCCOCCO (mixture of isomers)", "C"],
  ["CCC=CCCCCCCCCOCCOCCOCCOCCOCCOCCOCCO (mixture of isomers)", "C"],
  ["C=CCCCCCCCCOCCOCCOCCO", "C"],
  ["CCC=CCCCCCCCCOCCOCCOCCOCCOCCOCCOCCOCCOCCOCCOCCOCCOCCOCCOCCO (mixture of isomers)", "C"],
  ["CCC=CCCCCCCCCOCCOCCOCCO (mixture of isomers)", "C"],
  ["C=CCCCCCCCCOCCOCCOCCOCCOCCOCCOCCO", "C"],
  ["CCC=CCCCCCCCCOCCO (mixture of isomers)", "C"]
]}

###

protocolNotes: Emulsion stability testing of nonionic emulsifiers, aromatic solvent series
Format: physicochemical
runParameters: 2,4-D ester 480 g/L in Exxsol D-110, 34 ppm water

{"columns": ["molecule", "1 h separation, amount"],
 "data": [
  ["CCC=CCCCCCCCCOCCOCCOCCOCCOCCO (mixture of isomers) [A12-10]", "0.7 mL"],
  ["C=CCCCCCCCCOCCOCCOCCO [A10-7]", "4 mL"],
  ["C=CCCCCCCCCOCCOCCOCCOCCOCCOCCOCCOCCOCCOCCOCCOCCOCCOCCOCCO [A10-16]", "2.6 mL"],
  ["C=CCCCCCCCCOCCO [A10-4]", "4.5 mL"],
  ["CCC=CCCCCCCCCOCCOCCOCCOCCOCCOCCOCCO (mixture of isomers) [A12-13]", "3.5 mL"],
  ["C=CCCCCCCCCOCCOCCOCCOCCOCCO [A10-10]", "1.5 mL"],
  ["C=CCCCCCCCCOCCOCCOCCOCCOCCOCCOCCO [A10-13]", "2.8 mL"],
  ["CCC=CCCCCCCCCOCCOCCOCCOCCOCCOCCOCCOCCOCCOCCOCCOCCOCCOCCOCCO (mixture of isomers) [A12-16]", "3.9 mL"],
  ["CCC=CCCCCCCCCOCCO (mixture of isomers) [A12-4]", "6 mL"],
  ["CCC=CCCCCCCCCOCCOCCOCCO (mixture of isomers) [A12-7]", "3.2 mL"]
]}

Data credit: patent US9708251B2
